- target.of.assay: Nuclear receptor subfamily 1 group I member 3 (Homo sapiens)
- test.protocol: qHTS assay to identify small molecule antagonists of the constitutive androstane receptor (CAR) signaling pathway (AID 1224838);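 note: HepG2 cells stably expressing hCAR with CYP2B6 luciferase reporter stimulated by CITCO; nearly all actives have a fitted effect of over 40% in size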; note: potency is the fitted concentration of half-maximal effect
- assay.setup: HepG2-CYP2B6-hCAR luciferase, CITCO-stimulated, 24 h; series mostly up to 92.4 µM
- Description: U.S. Tox21 Program National Center for Advancing Translational Sciences [NCATS] NIH Chemical Genomics Center [NCGC] U.S. Environmental Protection Agency [EPA] National Institutes of Environmental Health Sciences [NIEHS] National Toxicology Program [NTP] U.S. Food and Drug Administration [FDA] […] Tox21 Assay Protocol Summary: A double-stable (hCAR and CYP2B6-2.2kb) transfected cell line, derived from human hepatoma (HepG2) cells, was utilized for the duration of the quantitative high-throughput screens. […]
Records with an inconclusive call do not appear. Active and inactive are the calls of the source. Calls come from the whole dose curve; as a rule, active = well fitted inhibition curve with a large enough effect in the repeat runs; inconclusive = weak or mixed curves, or effect the other way; inactive = no such curve, though single readings can be large or run the other way.
observation.type: Potency

compound: CCCC(C)CCC(C)=O (configuration not stated)
observation.type: Potency
result: inactive
//
compound: Oc1cc2ccccc2cc1O
observation.type: Potency
result: inactive
//
compound: CC(C)c1ccccc1N
observation.type: Potency
result: inactive
//
compound: C=C(C)C(=O)OCCC[Si](Cl)(Cl)Cl
observation.type: Potency
result: inactive
//
compound: CCN=C1C=CC(=C(c2ccc(N(CC)CC)cc2)c2ccc(N(CC)CC)cc2)c2ccccc21
observation.type: Potency
result: 6.08 µM (active)
//
compound: CC1CNCC(C)O1 (configuration not stated)
observation.type: Potency
result: inactive

Here is the next item to consider.
GET /values?readout=Potency&item= `CCCN(CCc1cccs1)[C@H]1CCc2c(O)cccc2C1`
inactive

---

- test.protocol: qHTS assay to identify small molecule antagonists of the estrogen related receptor (ERR) signaling pathway from Tox21 library - cell viability counter screen (AID 1224834); note: nearly all actives have a fitted effect of over 30% in size
- assay.setup: ERR reporter cells viability, CellTiter-Fluor, 17.5 h; series mostly up to 92.4 µM
Records with an inconclusive call do not appear. Calls of active or inactive are those of the source. The call rests on the fitted dose curve; in most records, active means well fitted cell-killing curve with a large enough effect in the repeat runs; inconclusive means weak or mixed curves; inactive means flat fitted curve, though single readings scatter.
Tick one outcome: 1 (yes) for active, 0 (no) for inactive

Here's what some known entries look like.
molecule: Cc1cncc(C)c1
category.label: 0 (no)
--
molecule: C[C@@H]1CC[C@H]2C(C)(C)[C@H]3C[C@@]12CC[C@@]3(C)O
category.label: 0 (no)
--
molecule: CCCCCCCC(C)=O
category.label: 0 (no)
--
molecule: O=C1NC2CCCCN2C12CCN(CCCN1c3ccccc3CCc3ccc(Cl)cc31)CC2 (configuration not stated)
category.label: 1 (yes)

I'd appreciate the recorded outcome for `CC1=CCC(=O)O1` from this test.
0 (no)

How did this test come out for `CN(C)c1ccc(N=Nc2ccccc2C(=O)O)cc1` ?
1 (yes)

Outcome logged for COc1ccccc1OCCNCC(O)COc1cccc2[nH]c3ccccc3c12 (configuration not stated) in this assay:
1 (yes)

So what was the verdict on `Clc1ccccc1CN1CCc2sccc2C1` in this test?
0 (no)

How did this test come out for `O=C1C=CC(=O)N1c1ccccc1` ?
1 (yes)

What call does the record list for `C=CC(=O)OCCOCC(CC)(COCCOC(=O)C=C)COCCOC(=O)C=C` ?
1 (yes)

Could you kindly confirm the outcome this assay logged for `Oc1ccc(-c2ccccc2)c(Cl)c1` ?
0 (no)

Please let me know the test result on file for CO[Si](CCC1CCC2OC2C1)(OC)OC (configuration not stated) .
0 (no)

For `Nc1cc(Cl)c([N+](=O)[O-])cc1O` , what call appears in the results of this test?
1 (yes)

For this molecule, state the assay outcome: `CCN=C1C=CC(=C(c2ccc(N(CC)CC)cc2)c2ccc(N(CC)CC)cc2)c2ccccc21`
1 (yes)

Origin of the recorded values: PubChem BioAssay (Tox21)
